Data provenance is ChEMBL document CHEMBL1201862.

- System: SK-MEL-2
- TEST NAME: NCI tumour cell line growth inhibition, 48 h
Activity calls are given as the source filed them. Cut-off read from the data, not from the text of the source: active = GI50 up to about 1.1 µM and inactive = higher.
Please answer using one outcome listed in class 1 for active, class 0 for inactive

Enquiry: Called result for CC(C)(c1ccccc1)c1ccc(Oc2ccc(C#N)c(C#N)c2)cc1
Return: class 0

Enquiry: Called result for CCc1nc(N)c2nc(-c3ccc(C#N)cc3)oc2n1
Return: class 0

Enquiry: Called result for O=c1c2cccnc2[nH]c2ccc3cn[nH]c3c12
Return: class 0

Enquiry: Called result for COC(=O)c1cccc2c1Oc1ccccc1S2
Return: class 0

Enquiry: Called result for O=C(CNCc1ccccc1)Oc1c(Cl)c(Cl)c(Cl)c(Cl)c1Cl
Return: class 0

Enquiry: Called result for Cc1ccc2c(C(=O)c3c(C)n(CCN4CCOCC4)c4ccccc34)cccc2c1
Return: class 0

Enquiry: Called result for O=C1Sc2ccccc2C(=O)N2CCSC12 (stereo not given)
Return: class 0

Enquiry: Called result for CN1CCCN(C)CCCN(C)CCCN(C)CCC1
Return: class 0

Enquiry: Called result for CCc1nnc(CC)n1-n1c(Cc2ccccc2)n[nH]c1=O
Return: class 0

Enquiry: Called result for NS(=O)(=O)c1ccc(NC(=O)C2C(=O)C(=O)N(c3ccc(S(N)(=O)=O)cc3)C2=O)cc1 (stereo not given)
Return: class 0

Enquiry: Called result for C=CCN1C(=O)/C(=C/c2ccco2)N=C1SC1OC(COC(C)=O)C(OC(C)=O)C(OC(C)=O)C1OC(C)=O (stereo not given)
Return: class 0

Enquiry: Called result for Cc1ccc(Nc2ncnc3sc(SCc4ccccc4)nc23)cc1
Return: class 0

Enquiry: Called result for CC(C)OCC1CC(CC(=O)Nc2nncs2)C(=O)O1 (stereo not given)
Return: class 0

Enquiry: Called result for Cc1ccc(C)c(NC(=O)C(=O)CC(=O)C2CCOC2=O)c1 (stereo not given)
Return: class 0

Enquiry: Called result for Cc1cc2c(C)nn(Cc3ccccc3)c2c(C(N)=O)c1C
Return: class 0

Enquiry: Called result for CCOC(=O)NC(=O)c1cn(CCN2CCN(c3ncnc4[nH]cnc34)CC2)c(=O)[nH]c1=O
Return: class 0

Enquiry: Called result for CCOc1cc(C2SCC(=O)N2c2nc3cc4sc(N5C(=O)CSC5c5ccc(O)c(OCC)c5)nc4cc3s2)ccc1O (stereo not given)
Return: class 0

Enquiry: Called result for CCOC(=O)[N-]c1ccc(S(=O)(=O)[O+](C)CCl)cc1.CCOC(=O)[N-]c1ccc(S(=O)(=O)[O+](C)CCl)cc1.NC(=O)N=O.NC(=O)OCCCl
Return: class 0

Enquiry: Called result for COC1OC(C(C)O)C2OC(C)(C)OC12 (stereo not given)
Return: class 0

Enquiry: Called result for COC(=O)CNCC1OC2OC(C)(C)OC2C1N=[N+]=[N-] (stereo not given)
Return: class 0

Enquiry: Called result for Cc1ccc2nc(-c3ccc(-c4nc5ccc(C)cc5o4)c(O)c3)oc2c1
Return: class 0

Enquiry: Called result for C/C(=N\Nc1nc2ccccc2[nH]1)c1ccncn1
Return: class 1

Enquiry: Called result for CCOC(=O)N1CCN(C=S)CC1
Return: class 0

Enquiry: Called result for CCOC(=O)c1cc([N+](=O)[O-])c(Sc2ncnc3nc[nH]c23)c([N+](=O)[O-])c1
Return: class 0

Enquiry: Called result for O=S(=O)(O)c1cc(O)c2c(O)c(/N=N/c3ccc(/C=C/c4ccc(/N=N/c5c(S(=O)(=O)O)cc6cc(S(=O)(=O)O)cc(O)c6c5O)cc4S(=O)(=O)O)c(S(=O)(=O)O)c3)c(S(=O)(=O)O)cc2c1
Return: class 0
